Activity by entry:
target: Protein cereblon/ALK tyrosine kinase receptor/Echinoderm microtubule-associated protein-like 4 (Homo sapiens) (UniProt Q9UM73+Q9HC35+Q96SW2); test: Protac activity at CRBN/EML4-ALK in human NCI-H3122 cells assessed as induction of EML4-ALK fusion protein degradation at 1 uM incubated for 16 hrs by Western blot analysis relative to control; assay type: cell-based
Sequence (Q96SW2 whole entry partner, the tested form may be a part): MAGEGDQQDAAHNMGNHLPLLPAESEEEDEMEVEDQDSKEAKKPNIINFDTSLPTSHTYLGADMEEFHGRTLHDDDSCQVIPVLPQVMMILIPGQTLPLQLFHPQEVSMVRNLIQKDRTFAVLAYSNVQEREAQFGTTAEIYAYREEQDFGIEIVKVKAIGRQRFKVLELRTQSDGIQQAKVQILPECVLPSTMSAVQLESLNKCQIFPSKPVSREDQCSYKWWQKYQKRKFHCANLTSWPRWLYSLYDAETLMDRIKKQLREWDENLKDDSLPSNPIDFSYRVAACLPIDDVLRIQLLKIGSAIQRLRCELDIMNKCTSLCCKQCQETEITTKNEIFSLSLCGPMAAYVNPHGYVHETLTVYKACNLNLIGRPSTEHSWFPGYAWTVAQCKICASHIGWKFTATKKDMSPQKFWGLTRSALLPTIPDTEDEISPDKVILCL
Sequence (Q9HC35 whole entry partner, the tested form may be a part): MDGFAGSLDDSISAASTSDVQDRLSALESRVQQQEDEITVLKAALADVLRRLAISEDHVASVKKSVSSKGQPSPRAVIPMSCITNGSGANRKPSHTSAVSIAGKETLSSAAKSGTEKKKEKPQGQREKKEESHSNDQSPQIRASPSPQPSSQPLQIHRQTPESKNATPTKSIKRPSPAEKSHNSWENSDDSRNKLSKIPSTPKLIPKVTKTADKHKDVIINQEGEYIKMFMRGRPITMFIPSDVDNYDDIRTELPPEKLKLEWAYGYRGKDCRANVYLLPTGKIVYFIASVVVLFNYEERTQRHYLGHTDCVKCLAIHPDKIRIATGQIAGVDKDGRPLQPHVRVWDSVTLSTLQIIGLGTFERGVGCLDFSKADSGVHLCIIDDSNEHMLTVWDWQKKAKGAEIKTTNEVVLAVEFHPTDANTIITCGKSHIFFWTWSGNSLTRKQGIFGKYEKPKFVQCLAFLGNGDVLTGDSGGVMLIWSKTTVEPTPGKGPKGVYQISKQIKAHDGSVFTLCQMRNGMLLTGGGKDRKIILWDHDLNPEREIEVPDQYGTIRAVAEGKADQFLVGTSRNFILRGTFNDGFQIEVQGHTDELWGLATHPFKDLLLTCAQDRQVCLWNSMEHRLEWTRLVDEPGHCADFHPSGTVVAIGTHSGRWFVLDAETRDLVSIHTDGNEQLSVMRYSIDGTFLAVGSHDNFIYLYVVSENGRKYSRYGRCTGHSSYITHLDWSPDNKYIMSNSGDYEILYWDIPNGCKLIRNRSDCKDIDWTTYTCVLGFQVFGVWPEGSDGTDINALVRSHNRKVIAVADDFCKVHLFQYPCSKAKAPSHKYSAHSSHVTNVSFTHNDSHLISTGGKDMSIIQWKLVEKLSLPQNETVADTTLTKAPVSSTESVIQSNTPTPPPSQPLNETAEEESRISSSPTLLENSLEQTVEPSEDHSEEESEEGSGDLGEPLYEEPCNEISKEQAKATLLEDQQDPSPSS
Sequence (Q9UM73 19-1620 limits assumed): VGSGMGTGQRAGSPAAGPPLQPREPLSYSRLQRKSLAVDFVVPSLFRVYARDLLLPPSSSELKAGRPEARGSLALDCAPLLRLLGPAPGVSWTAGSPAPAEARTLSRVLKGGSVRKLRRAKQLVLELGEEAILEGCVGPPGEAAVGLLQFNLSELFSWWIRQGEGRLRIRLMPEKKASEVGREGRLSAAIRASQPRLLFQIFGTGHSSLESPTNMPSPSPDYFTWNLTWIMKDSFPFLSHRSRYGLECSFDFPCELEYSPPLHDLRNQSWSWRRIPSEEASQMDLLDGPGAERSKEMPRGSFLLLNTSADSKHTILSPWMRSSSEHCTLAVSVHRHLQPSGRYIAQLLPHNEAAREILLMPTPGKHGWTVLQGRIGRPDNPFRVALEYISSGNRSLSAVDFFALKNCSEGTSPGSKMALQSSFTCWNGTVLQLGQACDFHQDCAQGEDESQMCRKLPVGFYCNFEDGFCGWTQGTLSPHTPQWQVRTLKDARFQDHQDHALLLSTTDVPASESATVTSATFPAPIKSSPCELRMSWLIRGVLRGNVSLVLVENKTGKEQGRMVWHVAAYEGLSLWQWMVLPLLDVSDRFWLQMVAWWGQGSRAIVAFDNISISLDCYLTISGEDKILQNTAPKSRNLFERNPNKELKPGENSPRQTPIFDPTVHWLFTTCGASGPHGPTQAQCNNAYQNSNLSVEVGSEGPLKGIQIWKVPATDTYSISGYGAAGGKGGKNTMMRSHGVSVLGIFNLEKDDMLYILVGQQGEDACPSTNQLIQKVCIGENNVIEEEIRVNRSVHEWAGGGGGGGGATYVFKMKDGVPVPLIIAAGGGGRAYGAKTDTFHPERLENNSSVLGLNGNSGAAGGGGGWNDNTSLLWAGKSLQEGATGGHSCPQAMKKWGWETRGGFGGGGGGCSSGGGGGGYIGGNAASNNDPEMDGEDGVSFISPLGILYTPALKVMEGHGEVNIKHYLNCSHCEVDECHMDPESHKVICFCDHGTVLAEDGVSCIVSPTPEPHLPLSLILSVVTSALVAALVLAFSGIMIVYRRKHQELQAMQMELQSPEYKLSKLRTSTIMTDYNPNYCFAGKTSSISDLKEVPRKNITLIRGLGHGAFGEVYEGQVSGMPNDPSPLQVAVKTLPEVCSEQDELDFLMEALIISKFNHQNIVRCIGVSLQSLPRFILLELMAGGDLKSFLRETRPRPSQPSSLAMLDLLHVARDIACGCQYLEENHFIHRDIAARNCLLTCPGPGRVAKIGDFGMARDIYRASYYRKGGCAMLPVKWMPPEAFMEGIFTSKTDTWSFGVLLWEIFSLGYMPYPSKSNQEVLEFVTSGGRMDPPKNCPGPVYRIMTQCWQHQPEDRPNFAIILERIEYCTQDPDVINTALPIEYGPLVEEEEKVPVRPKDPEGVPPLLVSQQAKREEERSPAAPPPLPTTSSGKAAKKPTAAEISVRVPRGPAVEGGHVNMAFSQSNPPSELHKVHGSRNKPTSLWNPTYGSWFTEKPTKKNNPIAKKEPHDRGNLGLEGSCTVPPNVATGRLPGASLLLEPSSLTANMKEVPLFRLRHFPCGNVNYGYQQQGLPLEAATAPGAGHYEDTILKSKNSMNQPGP
Field format: number, assumed %, no unit text.

Recorded Activity, per entry:
| compound | Activity / % |
| --- | --- |
| CCc1cc2c(cc1N1CCC(N3CCN(CC(=O)NCCCCNc4cccc5c4C(=O)N(C4CCC(=O)NC4=O)C5=O)CC3)CC1)C(C)(C)c1[nH]c3cc(C#N)ccc3c1C2=O (stereo not given) | 87 |
| CCc1cc2c(cc1N1CCN(CC(=O)NCCNc3cccc4c3C(=O)N(C3CCC(=O)NC3=O)C4=O)CC1)C(C)(C)c1[nH]c3cc(C#N)ccc3c1C2=O (stereo not given) | 81.8 |
| CCc1cc2c(cc1N1CCC(N3CCN(CC(=O)NCCCCCCNc4cccc5c4C(=O)N(C4CCC(=O)NC4=O)C5=O)CC3)CC1)C(C)(C)c1[nH]c3cc(C#N)ccc3c1C2=O (stereo not given) | 77.3 |
| CCc1cc2c(cc1N1CCN(c3cccc4c3C(=O)N(C3CCC(=O)NC3=O)C4=O)CC1)C(C)(C)c1[nH]c3cc(C#N)ccc3c1C2=O (stereo not given) | 50.2 |

Proceed to the following item.
*Q* What value of Activity has been recorded for this entry: CCc1cc2c(cc1N1CCN(CC(=O)NCCCCCCNc3cccc4c3C(=O)N(C3CCC(=O)NC3=O)C4=O)CC1)C(C)(C)c1[nH]c3cc(C#N)ccc3c1C2=O (stereo not given)
*A* 75.8
